Molecular target: BmGr9 Q443E_Q445K (Bombyx mori, UniProt B3GTD7, Q443E/Q445K)
Assay: GCaMP calcium flux assay, BmGr9 Q443E_Q445K
assayReadout: EC50
Value and unit, in that order.

stdin: Quick check: EC50 of O=C(CO)[C@@H](O)[C@H](O)[C@H](O)CO [D-fructose] ?
stdout: 5.1 mM

* * *

Target: BmGr9 Q443E_Q445R (Bombyx mori, UniProt B3GTD7, Q443E/Q445R)
Sequence (B3GTD7 entry or part of it Q443E/Q445R): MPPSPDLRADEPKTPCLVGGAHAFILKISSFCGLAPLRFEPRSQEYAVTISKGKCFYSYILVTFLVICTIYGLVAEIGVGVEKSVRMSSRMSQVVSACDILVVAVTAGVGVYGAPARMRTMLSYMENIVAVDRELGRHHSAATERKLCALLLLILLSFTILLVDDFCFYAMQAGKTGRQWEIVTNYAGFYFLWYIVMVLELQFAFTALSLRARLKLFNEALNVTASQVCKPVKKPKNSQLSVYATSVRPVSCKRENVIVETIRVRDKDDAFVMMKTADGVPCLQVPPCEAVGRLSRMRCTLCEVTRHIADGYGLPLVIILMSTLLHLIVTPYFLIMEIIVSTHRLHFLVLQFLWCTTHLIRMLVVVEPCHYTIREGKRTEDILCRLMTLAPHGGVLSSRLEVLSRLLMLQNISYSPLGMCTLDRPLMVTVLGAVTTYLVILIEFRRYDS
Assay: GCaMP calcium flux assay, BmGr9 Q443E_Q445R
assayReadout: EC50 (mM)
The answer is to be given in mM; state only the numeric part.

stdin: Quick check: EC50 of O=C(CO)[C@@H](O)[C@H](O)[C@H](O)CO ?
stdout: 4.07

* * *

Target: BmGr9 Q445N (Bombyx mori, UniProt B3GTD7, Q445N)
Sequence (B3GTD7 entry or part of it Q445N): as the sequence (B3GTD7 entry or part of it Q443E/Q445R) above, with E443Q, R445N counted along it
Experiment: GCaMP calcium flux assay, BmGr9 Q445N
assayReadout: pEC50
The value called pEC50 is obtained by taking minus log10 of the concentration in mol/L.

stdin: Quick check: pEC50 of O=C(CO)[C@@H](O)[C@H](O)[C@H](O)CO [D-fructose] ?
stdout: 1.69

* * *

Target: BmGr9 Q443D (Bombyx mori, UniProt B3GTD7, Q443D)
Sequence (B3GTD7 entry or part of it Q443D): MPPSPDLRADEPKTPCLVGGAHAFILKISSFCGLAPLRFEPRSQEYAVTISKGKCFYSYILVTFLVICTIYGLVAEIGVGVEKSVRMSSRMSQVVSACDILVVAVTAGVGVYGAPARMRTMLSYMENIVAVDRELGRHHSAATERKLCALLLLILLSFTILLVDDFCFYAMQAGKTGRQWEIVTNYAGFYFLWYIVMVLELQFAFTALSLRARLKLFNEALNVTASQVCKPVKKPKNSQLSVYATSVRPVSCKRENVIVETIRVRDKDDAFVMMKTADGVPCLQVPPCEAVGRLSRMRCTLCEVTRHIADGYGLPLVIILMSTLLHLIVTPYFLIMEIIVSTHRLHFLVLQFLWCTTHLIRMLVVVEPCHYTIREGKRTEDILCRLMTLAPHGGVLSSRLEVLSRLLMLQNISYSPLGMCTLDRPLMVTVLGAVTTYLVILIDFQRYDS
Experiment: GCaMP calcium flux assay, BmGr9 Q443D
Type: cell-based
assayReadout: EC50 (mM)
The answer is to be given in mM; state only the numeric part.

stdin: Quick check: EC50 of O=C(CO)[C@@H](O)[C@H](O)[C@H](O)CO ?
stdout: 10

* * *

Target: BmGr9 Y332A (Bombyx mori, UniProt B3GTD7, Y332A)
Sequence (B3GTD7 entry or part of it Y332A): as the sequence (B3GTD7 entry or part of it Q443E/Q445R) above, with Y332A, E443Q, R445Q counted along it
Experiment: GCaMP calcium flux assay, BmGr9 Y332A
assayReadout: EC50 (mM)
The answer is to be given in mM; state only the numeric part.

stdin: Quick check: EC50 of O=C(CO)[C@@H](O)[C@H](O)[C@H](O)CO [D-fructose] ?
stdout: 8.3

* * *

Molecular target: BmGr9 T330V (Bombyx mori, UniProt B3GTD7, T330V)
Experiment: GCaMP calcium flux assay, BmGr9 T330V
assayReadout: EC50

stdin: Quick check: EC50 of O=C(CO)[C@@H](O)[C@H](O)[C@H](O)CO [D-fructose] ?
stdout: ~98 mM

* * *

Biological target: BmGr9 T330S (Bombyx mori, UniProt B3GTD7, T330S)
Sequence (B3GTD7 entry or part of it T330S): as the sequence (B3GTD7 entry or part of it Q443E/Q445R) above, with T330S, E443Q, R445Q counted along it
Assay: GCaMP calcium flux assay, BmGr9 T330S
assayReadout: EC50

stdin: Quick check: EC50 of O=C(CO)[C@@H](O)[C@H](O)[C@H](O)CO ?
stdout: ~100 mM

* * *

Target: BmGr9 Q443D_Q445K (Bombyx mori, UniProt B3GTD7, Q443D/Q445K)
Sequence (B3GTD7 entry or part of it Q443D/Q445K): as the sequence (B3GTD7 entry or part of it Q443D) above, with Q445K counted along it
Test: GCaMP calcium flux assay, BmGr9 Q443D_Q445K
assayReadout: EC50

stdin: Quick check: EC50 of O=C(CO)[C@@H](O)[C@H](O)[C@H](O)CO [D-fructose] ?
stdout: ~18 mM

* * *

Molecular target: BmGr9 Q443E (Bombyx mori, UniProt B3GTD7, Q443E)
Assay: GCaMP calcium flux assay, BmGr9 Q443E
assayReadout: pEC50
The value called pEC50 is obtained by taking minus log10 of the concentration in mol/L.

stdin: GET /values?readout=pEC50&system=BmGr9 Q443E (Bombyx mori, UniProt B3GTD7, Q443E)&item= O=C(CO)[C@@H](O)[C@H](O)[C@H](O)CO
stdout: 2.88
